Experiment summary: Transmission spectra of Ni-dye complexes on mordanted receiving element (Example 1)
Assay type: physicochemical
Condition details: nickel sulfate/gelatin + poly(4-vinylpyridine)/gelatin mordant receiver; pH 7.0 buffer; normalized to density 1.0
Readout kind: Mordant HBW of Ni-dye complex (nm)
Use nm as the unit, but write only the number.

Inquiry: Item under review: O=S(=O)(Nc1cccc(O)c1)c1cnc(N=Nc2ccc(O)c3cccnc23)c(Cl)c1 [Compound E] . Reported Mordant HBW of Ni-dye complex?
Reply text: 70

Inquiry: So what's the measured Mordant HBW of Ni-dye complex for this one? O=S(=O)(Nc1ccccc1)c1cnc(N=Nc2ccc(O)c3cccnc23)c(Cl)c1 [G]
Reply text: 70

Inquiry: Can you share its Mordant HBW of Ni-dye complex? I mean this compound: CC(C)NS(=O)(=O)c1cnc(N=Nc2ccc(O)c3cc(C(=O)Nc4cccc(O)c4)c(Cl)nc23)c(Cl)c1 [H]
Reply text: 72
